Where do these numbers come from? They come from ChEMBL document CHEMBL6134922.

experiment: Cmax in CD-1 mouse at 10 mg/kg, po measured up to 24 hrs by LC-MS/MS analysis; type: ADME, organism-based; conditions: in vivo
observationType: Cmax (µM)
Your answer should be a plain number; it is taken to be in µM.

// lookup Cmax for Cc1cc(C#Cc2ccc(F)cc2)cnc1NC(=O)c1cc(NC(=O)OC(C)(C)C)ccc1Cl
0.252

----------
assay: Unbound fraction in rat brain at 5 uM incubated for 6 hrs by equilibrium dialysis based HPLC analysis; assay type: ADME, tissue-based
observationType: fraction unbound at 6 h, 5 µM

// lookup fraction unbound at 6 h, 5 µM for Cc1cc(C#Cc2ccc(F)cc2)cnc1NC(=O)c1cc(NC(=O)OC(C)(C)C)ccc1Cl
> 0.999

----------
experiment: AUC in CD-1 mouse at 10 mg/kg, po measured up to 24 hrs by LC-MS/MS analysis; assay type: ADME, organism-based; conditions: in vivo
observationType: AUC at 24 h (µM·h)
Your answer should be a plain number; it is taken to be in µM·h.

// lookup AUC at 24 h for Cc1cc(C#Cc2ccc(F)cc2)cnc1NC(=O)c1cc(NC(=O)OC(C)(C)C)ccc1Cl
2.27

----------
test: Cmax in CD-1 mouse at 10 mg/kg, ip measured up to 24 hrs by LC-MS/MS analysis; format: ADME, organism-based; details: in vivo
observationType: Cmax
Hey, just the number and the unit after it is fine.

// lookup Cmax for Cc1cc(C#Cc2ccc(F)cc2)cnc1NC(=O)c1cc(NC(=O)OC(C)(C)C)ccc1Cl
888 nM

----------
Quick reference for fraction unbound at 6 h, 5 µM among some molecules
assay: Plasma protein binding in mouse assessed as unbound fraction at 5 uM incubated for 6 hrs by equilibrium dialysis based HPLC analysis; format: ADME, cell-free

- smilesEntry: "CC(C)(C)OC(=O)Nc1ccc(Cl)c(C(=O)Nc2ncc(C#Cc3ccccc3)cc2Cl)c1"
  fraction unbound at 6 h, 5 µM: "> 0.999"

// lookup fraction unbound at 6 h, 5 µM for Cc1cc(C#Cc2cccc(F)c2)cnc1NC(=O)c1cc(NC(=O)OC(C)(C)C)ccc1Cl
> 0.999

----------
experiment: AUC in CD-1 mouse at 10 mg/kg, ip measured up to 24 hrs by LC-MS/MS analysis; format: ADME, organism-based; details: in vivo
observationType: AUC at 24 h (µM·h)
Your answer should be a plain number; it is taken to be in µM·h.

// lookup AUC at 24 h for Cc1cc(C#Cc2ccc(F)cc2)cnc1NC(=O)c1cc(NC(=O)OC(C)(C)C)ccc1Cl
12.3
